Target: VEGF receptor KDR (VEGFR2) (Homo sapiens, UniProt P35968)
Sequence (P35968 806-1356): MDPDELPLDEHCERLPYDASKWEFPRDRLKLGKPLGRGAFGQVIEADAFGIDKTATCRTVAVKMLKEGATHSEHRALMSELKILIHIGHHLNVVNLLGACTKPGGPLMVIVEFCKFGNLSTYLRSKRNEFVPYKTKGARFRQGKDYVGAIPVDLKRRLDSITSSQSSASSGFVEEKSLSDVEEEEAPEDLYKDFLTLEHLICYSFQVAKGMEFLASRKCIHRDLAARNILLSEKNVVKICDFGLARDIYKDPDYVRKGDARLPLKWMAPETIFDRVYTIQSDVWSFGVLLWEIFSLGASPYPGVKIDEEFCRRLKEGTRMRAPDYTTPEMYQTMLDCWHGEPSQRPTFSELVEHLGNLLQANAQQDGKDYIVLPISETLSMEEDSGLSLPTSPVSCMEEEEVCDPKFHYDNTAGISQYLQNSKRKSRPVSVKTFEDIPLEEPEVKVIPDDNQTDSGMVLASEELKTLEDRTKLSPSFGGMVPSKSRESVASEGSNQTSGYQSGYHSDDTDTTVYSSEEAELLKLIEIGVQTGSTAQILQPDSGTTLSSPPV
Assay: In vitro receptor tyrosine kinase assay (VEGF receptor KDR), DELFIA
Details: recombinant GST-VEGFR2 (806-1356), ATP 0.6 uM, enzyme 5 nM; read-out: VEGFR_IC50_UM
parameter-measured: IC50 (nM)

Consider the following illustrative entries.
[[record]]
compound = "CN(C)CCNC(=O)[C@H]1CCCN(Cc2ccc(-c3cc4nccc(Oc5ccc(NC(=O)NC6CC6)cc5F)c4s3)nc2)C1 [Compound 13]"
assayed_system = "VEGF receptor KDR (VEGFR2) (Homo sapiens, UniProt P35968)"
quantitative_readout = 8

[[record]]
compound = "CC(=O)SCC(=O)N1CCN(Cc2ccc(-c3cc4nccc(Oc5ccc(NC(=O)NC6CC6)cc5F)c4s3)nc2)CC1 [Compound 22]"
assayed_system = "VEGF receptor KDR (VEGFR2) (Homo sapiens, UniProt P35968)"
quantitative_readout = 15

[[record]]
compound = "CNCCNC(=O)C1CCCN(Cc2ccc(-c3cc4nccc(Oc5ccc(NC(=O)NC6CC6)cc5F)c4s3)nc2)C1 (stereo not shown) [Compound 5]"
assayed_system = "VEGF receptor KDR (VEGFR2) (Homo sapiens, UniProt P35968)"
quantitative_readout = 8

[[record]]
compound = "CN(C)CCNC(=O)[C@@H]1CCCN(Cc2ccc(-c3cc4nccc(Oc5ccc(NC(=O)NC6CC6)cc5F)c4s3)nc2)C1 [Compound 10]"
assayed_system = "VEGF receptor KDR (VEGFR2) (Homo sapiens, UniProt P35968)"
quantitative_readout = 7


[a] C[C@@H]1CN(C(=O)CO)CCN1Cc1ccc(-c2cc3nccc(Oc4ccc(NC(=O)NC5CC5)cc4F)c3s2)nc1 [Compound 26]
[b] CC(C)(O)C(=O)N1CCN(Cc2ccc(-c3cc4nccc(Oc5ccc(NC(=O)NC6CC6)cc5F)c4s3)nc2)CC1 [Compound 35-A]
[c] O=C(Nc1ccc(Oc2ccnc3cc(-c4ccc(CN5CCCC(C(=O)N6CC[C@@H](O)C6)C5)cn4)sc23)c(F)c1)NC1CC1 (stereo partly shown) [Compound 7]
Ask: Rank by IC50 (largest to smallest). Enter labels, ranked according to the request.
Reply: c, a, b
